Source: ChEMBL document CHEMBL4393714

target: 5-hydroxytryptamine receptor 2A (Homo sapiens); experiment: Displacement of [3H] ketanserin from human recombinant 5-HT2A receptor measured after 60 mins by scintillation counter method
Sequence (P28223 whole entry): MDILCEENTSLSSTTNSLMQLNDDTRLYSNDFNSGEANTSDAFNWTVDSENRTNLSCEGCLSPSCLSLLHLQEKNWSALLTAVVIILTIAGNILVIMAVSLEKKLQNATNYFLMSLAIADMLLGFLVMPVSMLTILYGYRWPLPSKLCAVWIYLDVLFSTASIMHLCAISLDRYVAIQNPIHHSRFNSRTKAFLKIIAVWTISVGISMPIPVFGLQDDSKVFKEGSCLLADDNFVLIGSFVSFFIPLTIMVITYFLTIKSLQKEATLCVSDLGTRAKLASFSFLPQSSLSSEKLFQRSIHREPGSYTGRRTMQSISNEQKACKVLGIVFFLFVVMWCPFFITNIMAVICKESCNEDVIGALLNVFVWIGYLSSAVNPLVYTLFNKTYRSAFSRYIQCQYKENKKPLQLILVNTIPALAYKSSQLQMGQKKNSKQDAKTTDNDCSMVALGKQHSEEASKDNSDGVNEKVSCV
observationType: pIC50
Reminder that pIC50 is minus the log10 of a molar concentration.

CC(C)CCO[C@@H]1[C@H]2OC(C)(C)O[C@H]2[C@H]2COCc3cn(nn3)C[C@H]3O[C@H](CCN(CCc4ccc5ccccc5c4)CC[C@H]1O2)[C@H](OCCC(C)C)[C@H]1OC(C)(C)O[C@H]13: 5.06

Proceeding to the next compound to report its pIC50.
query: Note pIC50 for the compound shown: CC(C)CCO[C@@H]1[C@H]2OC(C)(C)O[C@H]2[C@H]2Cn3cc(nn3)COCCCCCCN(CCc3ccc4ccccc4c3)CC[C@H]1O2
result: 5.74
